Origin of the recorded values: patent US8106055B2

# experimental-target: human bradykinin 1 receptor (B1R) (Homo sapiens)
# Construct: expressed in transfected cells; host or cells: CHO K1 cells
# Sequence (P46663 whole entry): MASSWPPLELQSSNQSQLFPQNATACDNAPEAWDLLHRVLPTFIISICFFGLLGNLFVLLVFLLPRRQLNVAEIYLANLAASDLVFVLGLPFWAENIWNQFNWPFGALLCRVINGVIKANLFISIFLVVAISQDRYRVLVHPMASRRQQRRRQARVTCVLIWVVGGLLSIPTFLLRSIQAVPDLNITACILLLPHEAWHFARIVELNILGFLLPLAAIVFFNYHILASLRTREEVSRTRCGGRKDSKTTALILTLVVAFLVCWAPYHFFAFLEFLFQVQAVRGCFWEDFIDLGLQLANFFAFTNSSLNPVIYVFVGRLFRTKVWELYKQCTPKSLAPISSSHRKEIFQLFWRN
# experiment: Functional investigation on the human bradykinin 1 receptor (B1R), Ca2+ FLIPR assay in CHO K1 hB1R cells
# Assay type: cell-based
# condition-set: B1R antagonism human; test substance 10 μM; Ca2+ FLIPR, CHO K1 hB1R cells
# Description: Functional Investigation on the Human Bradykinin 1 Receptor (B1R) The agonistic or antagonistic action of substances can be determined on the bradykinin 1 receptor (B1R) of the human species and rats with the following assay. In accordance with this assay, the Ca^2+ inflow through the channel is quantified with the aid of a Ca^2=-sensitive dyestuff (type Fluo-4, Molecular Probes Europe BV, Leiden, Holland) in a fluorescent imaging plate reader (FLIPR, Molecular Devices, Sunnyvale, USA). […]
Here the recorded B1R Ant. h [10 μM] % Inhibition is given for each entry.

molecule: CN(C)C(c1ccc(Cl)cc1)C1CCC(CCNC(=O)COCCN(Cc2ccccc2)S(=O)(=O)c2ccccc2)CC1 (centres unmarked)
B1R Ant. h [10 μM] % Inhibition, %: −7

molecule: CN(C)C(c1cccc(F)c1)C1CCC(CCNC(=O)COC2CCN(S(=O)(=O)c3ccc(Cl)cc3)C2)CC1 (centres unmarked)
B1R Ant. h [10 μM] % Inhibition, %: 4

molecule: COc1ccc(S(=O)(=O)N(C)CCOCC(=O)NC2CCC(C(c3ccc(F)cc3)N(C)C)CC2)cc1 (centres unmarked)
B1R Ant. h [10 μM] % Inhibition, %: 13

molecule: CN(C)C(c1ccc(F)cc1)C1CCC(CNC(=O)COC2CCN(S(=O)(=O)c3ccccc3)C2)CC1 (centres unmarked)
B1R Ant. h [10 μM] % Inhibition, %: 5

molecule: COc1ccc(S(=O)(=O)N2Cc3ccccc3CC2COCC(=O)NCC2CCC(C(c3ccc(F)cc3)N(C)C)CC2)cc1 (centres unmarked)
B1R Ant. h [10 μM] % Inhibition, %: 62

molecule: COc1cc(C)c(S(=O)(=O)N2CCN(CCOCC(=O)NCCC3CCC(C(c4ccc(Cl)cc4)N(C)C)CC3)CC2)c(C)c1C (centres unmarked)
B1R Ant. h [10 μM] % Inhibition, %: 73

molecule: COc1ccc(S(=O)(=O)N2CCCCC2COCC(=O)NC2CCC(C(c3cccs3)N(C)C)CC2)cc1OC (centres unmarked)
B1R Ant. h [10 μM] % Inhibition, %: −28

molecule: COc1ccc(S(=O)(=O)N2CCCCC2COCC(=O)NCC2CCC(C(CCc3ccccc3)N(C)C)CC2)c(OC)c1 (centres unmarked) [Example 420]
B1R Ant. h [10 μM] % Inhibition, %: −7

molecule: CN(C)C(c1ccc(Cl)cc1)C1CCC(CCNC(=O)COC2CCN(S(=O)(=O)c3ccc(F)cc3)C2)CC1 (centres unmarked)
B1R Ant. h [10 μM] % Inhibition, %: 8

molecule: COc1ccc(S(=O)(=O)N2CCCCC2COCC(=O)NCC2CCC(C(c3ccc(F)cc3)N(C)C)CC2)cc1OC (single isomer, unassigned) [Example 537]
B1R Ant. h [10 μM] % Inhibition, %: −15

molecule: CN(C)C(c1ccc(F)cc1)C1CCC(NC(=O)COC2CCN(S(=O)(=O)c3ccc(F)cc3)C2)CC1 (centres unmarked)
B1R Ant. h [10 μM] % Inhibition, %: −19

molecule: CN(C)C(CCc1ccccc1)C1CCC(CNC(=O)COCC2CCCN2S(=O)(=O)c2ccc(Cl)c(Cl)c2)CC1 (centres unmarked)
B1R Ant. h [10 μM] % Inhibition, %: 96

molecule: CN(C)C(c1ccc(F)cc1)C1CCC(CNC(=O)COC2CCN(S(=O)(=O)c3cccc(C(F)(F)F)c3)C2)CC1 (centres unmarked)
B1R Ant. h [10 μM] % Inhibition, %: 0

molecule: CN(C)C(c1cccc(F)c1)C1CCC(NC(=O)COC2CCN(S(=O)(=O)c3ccccc3)CC2)CC1 (centres unmarked)
B1R Ant. h [10 μM] % Inhibition, %: −8
